For each entry below, report its pIC50 value.
Biological target: PGD2 receptor (Homo sapiens)
Construct: A suspension adjusted to contain the platelets at a final concentration of 5×10^8/ml was warmed at 37° C; endogenous in cells; host or cells: washed human platelets from a healthy volunteer
Sequence (Q13258 1-359): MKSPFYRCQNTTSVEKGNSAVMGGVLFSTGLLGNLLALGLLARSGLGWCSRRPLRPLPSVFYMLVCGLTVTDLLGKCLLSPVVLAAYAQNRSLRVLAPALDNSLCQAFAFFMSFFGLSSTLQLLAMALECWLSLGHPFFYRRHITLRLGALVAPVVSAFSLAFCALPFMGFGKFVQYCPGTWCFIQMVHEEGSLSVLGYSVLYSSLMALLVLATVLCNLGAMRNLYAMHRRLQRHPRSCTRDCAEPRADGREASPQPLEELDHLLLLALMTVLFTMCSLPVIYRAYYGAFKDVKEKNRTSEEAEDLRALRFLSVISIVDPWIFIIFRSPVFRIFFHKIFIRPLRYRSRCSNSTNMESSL
Assay: Antagonistic activity against PGD2 receptor using human platelet (inhibition of PGD2-induced cAMP increase)
Type: cell-based
Details: human platelet; 0.1 μM PGD2; read-out: Inhibitory activity for the increase of cAMP caused by PGD2 in human platelet IC50
Scale explanation: pIC50 corresponds to minus log10 of a concentration expressed in moles per litre.

Input: Consider the compound CC1(C)[C@H]2C[C@H](C/C=C\CCCC(=O)O)[C@@H](NC(=O)c3ccc(S(=O)(=O)c4cccc(O)c4)s3)[C@@H]1C2 and give its recorded pIC50.
Output: 7.62

Input: Consider the compound COc1ccccc1Cc1ccc(C(=O)N[C@@H]2[C@@H](C/C=C\CCCC(=O)O)C[C@H]3C[C@@H]2C3(C)C)s1 and give its recorded pIC50.
Output: 8.40

Input: Consider the compound O=C(O)CCC/C=C\C[C@H]1[C@@H]2CC[C@@H](C2)[C@@H]1NC(=O)c1ccc(Cc2csc3ccccc23)s1 and give its recorded pIC50.
Output: 7.96

* * *

Molecular target: TXA2 receptor (Homo sapiens)
Construct: The human platelet membrane fraction was prepared in accordance with Experiment 1 (1); from tissue; host or cells: human platelet membrane fraction from blood of healthy volunteers
Sequence (P21731 1-343): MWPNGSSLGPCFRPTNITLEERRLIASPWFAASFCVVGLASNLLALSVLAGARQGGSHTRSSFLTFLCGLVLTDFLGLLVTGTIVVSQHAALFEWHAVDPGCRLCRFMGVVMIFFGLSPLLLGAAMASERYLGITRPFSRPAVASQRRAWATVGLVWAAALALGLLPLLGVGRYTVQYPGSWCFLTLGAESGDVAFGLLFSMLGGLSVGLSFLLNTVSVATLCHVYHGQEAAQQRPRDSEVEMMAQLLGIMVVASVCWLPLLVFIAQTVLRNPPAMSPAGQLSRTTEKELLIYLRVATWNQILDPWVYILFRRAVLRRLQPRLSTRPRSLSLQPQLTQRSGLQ
Experiment: Binding activity to TXA2 receptor ([3H](+)-S-145 sodium salt, human platelet membrane fraction)
Conditions: human platelet membrane fraction; 2 nM [3H](+)-S-145 sodium salt; read-out: Binding activity to TXA2 receptor in human platelet membrane fraction IC50
parameter-measured: IC50 (nM)
Quick note: give the figure in nM, leave out the unit.

Input: Consider the molecule O=C(O)COCCCC[C@H]1[C@@H]2CC[C@@H](C2)[C@@H]1NC(=O)c1ccc(Sc2cccs2)s1 [I-7M-59a] and give its recorded IC50.
Output: 40

Input: Consider the molecule Cc1cccc(Cc2ccc(C(=O)N[C@H]3[C@H]4CC[C@H](C4)[C@@H]3C/C=C\CCCC(=O)O)s2)c1 and give its recorded IC50.
Output: 19

Input: Consider the molecule O=C(O)CCC/C=C\C[C@H]1[C@@H]2CC[C@@H](C2)[C@@H]1NC(=O)c1ccc(Cc2cccs2)s1 and give its recorded IC50.
Output: 72

Input: Consider the molecule CC1(C)[C@H]2C[C@H](C/C=C\CCCC(=O)O)[C@@H](NC(=O)c3ccc(S(=O)(=O)c4cccc(O)c4)s3)[C@@H]1C2 and give its recorded IC50.
Output: 2.6

Input: Consider the molecule COc1ccccc1Cc1ccc(C(=O)N[C@@H]2[C@@H](C/C=C\CCCC(=O)O)C[C@H]3C[C@@H]2C3(C)C)s1 and give its recorded IC50.
Output: 45

Input: Consider the molecule CC1(C)[C@H]2C[C@H](C/C=C\CCCC(=O)O)[C@@H](NC(=O)c3ccc(Cc4cccc(-c5ccccc5)c4)s3)[C@@H]1C2 and give its recorded IC50.
Output: 72

Input: Consider the molecule Cc1ccc(S(=O)(=O)c2ccc(C(=O)N[C@H]3[C@H]4CC[C@H](C4)[C@@H]3C/C=C\CCCC(=O)O)s2)s1 and give its recorded IC50.
Output: 1.8

Input: Consider the molecule COc1ccccc1Cc1ccc(C(=O)N[C@H]2[C@H]3CC[C@H](C3)[C@@H]2CCCC/C=C/C(=O)O)s1 [I-71-126a] and give its recorded IC50.
Output: 61

Input: Consider the molecule Cc1ccc(C)n1S(=O)(=O)c1ccc(C(=O)N[C@H]2[C@H]3CC[C@H](C3)[C@@H]2CCCC/C=C/C(=O)O)s1 [I-71-270a] and give its recorded IC50.
Output: 0.9

Input: Consider the molecule Cc1cc(S(=O)(=O)c2ccc(C(=O)N[C@@H]3[C@@H](C/C=C\CCCC(=O)O)C[C@H]4C[C@@H]3C4(C)C)s2)cs1 and give its recorded IC50.
Output: 4
